These entries and their values trace back to PubChem BioAssay.

test: DUSP6 inhibitors restoring Erk phosphorylation by chemical complementation, primary imaging in DUSP6-transfected HeLa (AID 609); conditions: HeLa MKP-3 transfected, phospho-Erk imaging KS statistic; measured here: nuclear pErk red intensity z-score; at 10 µM; stronger effect = higher value; cells stimulated with TPA for 15 min
Parameter z-score: see the listing below.

- COMPOUND: "CC(C)(C)NCC(=O)c1c[nH]c2ccccc12"
  z-score: -0.666
- COMPOUND: "CC(C(=O)O)c1ccc(-c2ccccc2)c(F)c1 (stereo not drawn)"
  z-score: 0.18
- COMPOUND: "CCSc1nnc(N(CCC(=O)O)CCC(=O)O)s1"
  z-score: -1.04
- COMPOUND: "COc1cccc(N2CCN(C3CC(=O)N(c4cccc(Cl)c4)C3=O)CC2)c1 (stereo not drawn)"
  z-score: -0.427
- COMPOUND: "CCn1c(-c2ccco2)n[nH]c1=S"
  z-score: -1.57
- COMPOUND: "Nc1nnc(-c2cccc(Cl)c2Cl)c(N)n1"
  z-score: 1.16
- COMPOUND: "CCOCCSc1nc2c(c(=O)[nH]c(=O)n2C)n1CCCc1ccccc1"
  z-score: -0.255
- COMPOUND: "O=C1c2ccccc2C(=O)N1CCN1CCc2ccccc21"
  z-score: -0.565
- COMPOUND: "Cc1nc(-c2coc3cc(OCC(=O)O)ccc3c2=O)cs1"
  z-score: 0.055
- COMPOUND: "CN1CCC(=C2c3ccccc3C=Cc3ccccc32)CC1"
  z-score: -1.1
- COMPOUND: "Cn1c(=O)c2c3c(sc2n2c(SCc4ccccc4)nnc12)CCCC3"
  z-score: -0.287
- COMPOUND: "C=CCOc1nc(-c2ccncc2)nc2ccccc12"
  z-score: -0.88
- COMPOUND: "COc1ccc(C(=O)c2sc(NC(C)C)nc2N)cc1OC"
  z-score: -0.628
- COMPOUND: "CCOC(=O)c1c(C(F)(F)C(F)(F)C(F)(F)C(F)(F)F)n[nH]c1C"
  z-score: -0.449
- COMPOUND: "Nc1ccc2cn[nH]c2c1"
  z-score: -0.693
- COMPOUND: "CCNc1nc(NC(C)C)nc(N(C#N)C(C)C(=O)N(C)C)n1 (stereo not drawn)"
  z-score: 0.749
- COMPOUND: "Cc1ccc(Cl)c(Nc2ccccc2C(=O)O)c1Cl"
  z-score: -0.695
- COMPOUND: "Cc1nc2sccn2c(=O)c1CCN1CCC(=C(c2ccc(F)cc2)c2ccc(F)cc2)CC1"
  z-score: -0.385

----------
target: Voltage-gated potassium channel subunit beta-2 (Rattus norvegicus); test: KvBeta enzyme negative modulators, primary screen, biochemical, NADPH fluorescence (AID 622); conditions: recombinant KvBeta, 4-cyanobenzaldehyde reduction, at 10 µM, stronger effect = higher value;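 further: slope of raw intensity against log time taken from 70 to 1610 s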
OUTCOME MEASURE: fluorescence slope

- COMPOUND: "CSc1nc(N2CCCC2)c2c(c1C#N)CC(C)(C)OC2"
  TARGET OR SYSTEM: "Voltage-gated potassium channel subunit beta-2 (Rattus norvegicus)"
  MEASUREMENT: -0.314
- COMPOUND: "OC(CCN1CCCC1)(c1ccccc1)C1CCCCC1 (stereo not given)"
  TARGET OR SYSTEM: "Voltage-gated potassium channel subunit beta-2 (Rattus norvegicus)"
  MEASUREMENT: -0.528
- COMPOUND: "O=c1[nH]nc2n1CCCCC2"
  TARGET OR SYSTEM: "Voltage-gated potassium channel subunit beta-2 (Rattus norvegicus)"
  MEASUREMENT: -0.501
- COMPOUND: "CCCCCC1CC(CC#CCN2CCOCC2)C(=O)O1 (stereo not given)"
  TARGET OR SYSTEM: "Voltage-gated potassium channel subunit beta-2 (Rattus norvegicus)"
  MEASUREMENT: -0.452
- COMPOUND: "CCOC(=O)CNC(=O)Nc1ccccc1C(=O)OC"
  TARGET OR SYSTEM: "Voltage-gated potassium channel subunit beta-2 (Rattus norvegicus)"
  MEASUREMENT: -0.507
- COMPOUND: "COc1ccc(CCNC(=O)c2ccc(=O)[nH]n2)cc1OC"
  TARGET OR SYSTEM: "Voltage-gated potassium channel subunit beta-2 (Rattus norvegicus)"
  MEASUREMENT: -0.517
- COMPOUND: "CC(C)CN1C(=O)NC(NC(=O)c2cccnc2)(C(F)(F)F)C1=O (stereo not given)"
  TARGET OR SYSTEM: "Voltage-gated potassium channel subunit beta-2 (Rattus norvegicus)"
  MEASUREMENT: -0.505
- COMPOUND: "COc1ccc(C2N3CC4(C)CN2CC(C)(C3)C4O)cc1OC (stereo not given)"
  TARGET OR SYSTEM: "Voltage-gated potassium channel subunit beta-2 (Rattus norvegicus)"
  MEASUREMENT: -0.473
- COMPOUND: "CCOC(=O)C1=C(C)NC(C)=C(C(=O)OC)C1c1cccc(Cl)c1Cl (stereo not given)"
  TARGET OR SYSTEM: "Voltage-gated potassium channel subunit beta-2 (Rattus norvegicus)"
  MEASUREMENT: -0.431
- COMPOUND: "COC(=O)c1ccc(C2C(C(=O)c3cc4ccccc4o3)=C(O)C(=O)N2CCCN(C)C)cc1 (stereo not given)"
  TARGET OR SYSTEM: "Voltage-gated potassium channel subunit beta-2 (Rattus norvegicus)"
  MEASUREMENT: -0.405
- COMPOUND: "CN1CCc2c(sc3c2C(=O)NC(c2ccco2)N3)C1 (stereo not given)"
  TARGET OR SYSTEM: "Voltage-gated potassium channel subunit beta-2 (Rattus norvegicus)"
  MEASUREMENT: -0.43
- COMPOUND: "CCCOc1cc(CN2CCCCC2)cc(C(C)=O)c1"
  TARGET OR SYSTEM: "Voltage-gated potassium channel subunit beta-2 (Rattus norvegicus)"
  MEASUREMENT: -0.493
- COMPOUND: "O=C(COc1ccccc1)Nc1ccc(-c2nnc(-c3ccco3)o2)cc1"
  TARGET OR SYSTEM: "Voltage-gated potassium channel subunit beta-2 (Rattus norvegicus)"
  MEASUREMENT: -0.499
- COMPOUND: "N#CC1=C(SCC(=O)c2ccccc2)NC2=C(C(=O)CCC2)C1c1ccco1 (stereo not given)"
  TARGET OR SYSTEM: "Voltage-gated potassium channel subunit beta-2 (Rattus norvegicus)"
  MEASUREMENT: -0.435
- COMPOUND: "CC(C)C1C(C#N)=C(N)Oc2n[nH]c(C(C)(C)C)c21 (stereo not given)"
  TARGET OR SYSTEM: "Voltage-gated potassium channel subunit beta-2 (Rattus norvegicus)"
  MEASUREMENT: -0.429
- COMPOUND: "COc1ccc(OC(=O)c2cc3ccccc3o2)cc1"
  TARGET OR SYSTEM: "Voltage-gated potassium channel subunit beta-2 (Rattus norvegicus)"
  MEASUREMENT: -0.377
- COMPOUND: "COCCCNc1nc(-c2ccncc2)nc2ccccc12"
  TARGET OR SYSTEM: "Voltage-gated potassium channel subunit beta-2 (Rattus norvegicus)"
  MEASUREMENT: -0.514
- COMPOUND: "CCn1cc(C(=O)O)c(=O)c2cc(F)c(N3CCNCC3)nc21"
  TARGET OR SYSTEM: "Voltage-gated potassium channel subunit beta-2 (Rattus norvegicus)"
  MEASUREMENT: -0.463
- COMPOUND: "COc1ccc(Nc2oc(-c3cccs3)nc2C#N)cc1"
  TARGET OR SYSTEM: "Voltage-gated potassium channel subunit beta-2 (Rattus norvegicus)"
  MEASUREMENT: -0.352
- COMPOUND: "CC(=O)O[C@H]1C[C@@H]2CC[C@@H]3[C@H](CC[C@@]4(C)[C@H]3C[C@H]([N+]3(C)CCCCC3)[C@@H]4OC(C)=O)[C@@]2(C)C[C@@H]1[N+]1(C)CCCCC1"
  TARGET OR SYSTEM: "Voltage-gated potassium channel subunit beta-2 (Rattus norvegicus)"
  MEASUREMENT: -0.45
- COMPOUND: "CCc1cc2c(=O)c(-c3cscn3)coc2c(CN(C)C)c1O"
  TARGET OR SYSTEM: "Voltage-gated potassium channel subunit beta-2 (Rattus norvegicus)"
  MEASUREMENT: -0.0873
- COMPOUND: "COC(=O)[C@@H](N)Cc1ccc(O)cc1"
  TARGET OR SYSTEM: "Voltage-gated potassium channel subunit beta-2 (Rattus norvegicus)"
  MEASUREMENT: -0.496
- COMPOUND: "CC(=N\\O)/C(CN(C)C)=N/O"
  TARGET OR SYSTEM: "Voltage-gated potassium channel subunit beta-2 (Rattus norvegicus)"
  MEASUREMENT: -0.49
- COMPOUND: "O=CNC(=O)c1ccccc1C(=O)O"
  TARGET OR SYSTEM: "Voltage-gated potassium channel subunit beta-2 (Rattus norvegicus)"
  MEASUREMENT: -0.522
- COMPOUND: "CC1C/C=C/C=C/C=C/C=C/C(O[C@@H]2O[C@H](C)[C@@H](O)[C@H](N)[C@@H]2O)CC2OC(O)(CC(O)CC3OC3/C=C/C(=O)O1)CC(O)C2C(=O)O (stereo not given in full)"
  TARGET OR SYSTEM: "Voltage-gated potassium channel subunit beta-2 (Rattus norvegicus)"
  MEASUREMENT: -0.469
- COMPOUND: "O=C(CCCN1C(=O)c2ccccc2C1=O)N1CCC(c2ccccc2)C1 (stereo not given)"
  TARGET OR SYSTEM: "Voltage-gated potassium channel subunit beta-2 (Rattus norvegicus)"
  MEASUREMENT: -0.453
- COMPOUND: "Fc1ccccc1-c1nc(NCCCN2CCOCC2)c2ccccc2n1"
  TARGET OR SYSTEM: "Voltage-gated potassium channel subunit beta-2 (Rattus norvegicus)"
  MEASUREMENT: -0.448
- COMPOUND: "CN(C)CCCN1C(=O)C(O)=C(C(=O)c2cc3ccccc3o2)C1c1ccccn1 (stereo not given)"
  TARGET OR SYSTEM: "Voltage-gated potassium channel subunit beta-2 (Rattus norvegicus)"
  MEASUREMENT: -0.525
- COMPOUND: "COc1cccc(-c2nc(N3CCC(C)CC3)c3ccccc3n2)c1O"
  TARGET OR SYSTEM: "Voltage-gated potassium channel subunit beta-2 (Rattus norvegicus)"
  MEASUREMENT: -0.409
- COMPOUND: "COc1ccc(C=NCCCN2CCOCC2)cc1"
  TARGET OR SYSTEM: "Voltage-gated potassium channel subunit beta-2 (Rattus norvegicus)"
  MEASUREMENT: -0.486
- COMPOUND: "CC1(C)SC2[C@H](NC(=O)C(NC(=O)N3CCNC3=O)c3ccccc3)C(=O)N2C1C(=O)O (stereo not given in full)"
  TARGET OR SYSTEM: "Voltage-gated potassium channel subunit beta-2 (Rattus norvegicus)"
  MEASUREMENT: -0.461
- COMPOUND: "Cc1c(NC(=O)c2ccc(=O)oc2)c(=O)n(-c2ccccc2)n1C"
  TARGET OR SYSTEM: "Voltage-gated potassium channel subunit beta-2 (Rattus norvegicus)"
  MEASUREMENT: -0.249
- COMPOUND: "NS(=O)(=O)c1ccc(-c2ccc(C=NC3CCS(=O)(=O)C3)o2)cc1 (stereo not given)"
  TARGET OR SYSTEM: "Voltage-gated potassium channel subunit beta-2 (Rattus norvegicus)"
  MEASUREMENT: -0.59
- COMPOUND: "COC(=O)c1sc(NC(=O)C(C)C)c(C(=O)OC)c1C"
  TARGET OR SYSTEM: "Voltage-gated potassium channel subunit beta-2 (Rattus norvegicus)"
  MEASUREMENT: -0.426
- COMPOUND: "CCCc1cc(-c2nc(N)ncc2-c2ccc3c(c2)OCCCO3)c(O)cc1OC"
  TARGET OR SYSTEM: "Voltage-gated potassium channel subunit beta-2 (Rattus norvegicus)"
  MEASUREMENT: -0.519
- COMPOUND: "COC(=O)c1ccccc1NC(=O)CSc1nnc(-c2ccncc2)o1"
  TARGET OR SYSTEM: "Voltage-gated potassium channel subunit beta-2 (Rattus norvegicus)"
  MEASUREMENT: -0.471
- COMPOUND: "C(=N\\n1cnnc1)/c1cccnc1"
  TARGET OR SYSTEM: "Voltage-gated potassium channel subunit beta-2 (Rattus norvegicus)"
  MEASUREMENT: -0.457
- COMPOUND: "COc1ccc2nc(S(=O)Cc3ncc(C)c(OC)c3C)[nH]c2c1 (stereo not given)"
  TARGET OR SYSTEM: "Voltage-gated potassium channel subunit beta-2 (Rattus norvegicus)"
  MEASUREMENT: -0.449
- COMPOUND: "O=C1C=C(NCCNc2c(F)c(F)c(CO)c(F)c2F)CCC1"
  TARGET OR SYSTEM: "Voltage-gated potassium channel subunit beta-2 (Rattus norvegicus)"
  MEASUREMENT: -0.396
- COMPOUND: "CC(C)C(C(=O)Nc1ncn[nH]1)N1C(=O)c2ccccc2C1=O (stereo not given)"
  TARGET OR SYSTEM: "Voltage-gated potassium channel subunit beta-2 (Rattus norvegicus)"
  MEASUREMENT: -0.47
